assay: in vitro; details: human, hela cells, % viability
# viability at 28.5 h, 10 µM annotations
MEASUREMENT_NAME: viability at 28.5 h, 10 µM (%)

[
  {
    "COMPOUND": "c1cncc(CNc2nccnc2-c2ccsc2)c1 [CBK089314]",
    "MEASUREMENT_NAME": "viability at 28.5 h, 10 µM",
    "EXPERIMENTAL_RESULT": 113
  },
  {
    "COMPOUND": "O=C(Nc1ccccn1)NC1CCS(=O)(=O)C1 (stereo not shown) [CBK021330]",
    "MEASUREMENT_NAME": "viability at 28.5 h, 10 µM",
    "EXPERIMENTAL_RESULT": 99.9
  },
  {
    "COMPOUND": "Cc1cc2oc(C(=O)Nc3nc(-c4ccc(S(=O)(=O)N5CCCC5)cc4)cs3)c(C)c2cc1C [CBK266309]",
    "MEASUREMENT_NAME": "viability at 28.5 h, 10 µM",
    "EXPERIMENTAL_RESULT": 89.5
  },
  {
    "COMPOUND": "Fc1ccc(-c2noc(C3CCN(CCc4ccccc4)CC3)n2)cc1 [CBK051457]",
    "MEASUREMENT_NAME": "viability at 28.5 h, 10 µM",
    "EXPERIMENTAL_RESULT": 91.3
  },
  {
    "COMPOUND": "O=C(NC(c1ccccc1)c1cccnc1)C1CCN(C(=O)NC2CCCCC2)CC1 (stereo not shown) [CBK060378]",
    "MEASUREMENT_NAME": "viability at 28.5 h, 10 µM",
    "EXPERIMENTAL_RESULT": 84
  },
  {
    "COMPOUND": "CN(C)CCN1C(=O)C(O)=C(C(=O)c2cccs2)C1c1ccc([N+](=O)[O-])cc1 (stereo not shown) [CBK264584]",
    "MEASUREMENT_NAME": "viability at 28.5 h, 10 µM",
    "EXPERIMENTAL_RESULT": 92.6
  },
  {
    "COMPOUND": "Cn1c(C(=O)O)cc2cc(Oc3ccccc3)ccc21 [CBK286873]",
    "MEASUREMENT_NAME": "viability at 28.5 h, 10 µM",
    "EXPERIMENTAL_RESULT": 86.3
  },
  {
    "COMPOUND": "Cn1c(=O)c2c(nc(N3CCOCC3)n2CC/N=C2/CCCN2)n(C)c1=O [CBK267709C]",
    "MEASUREMENT_NAME": "viability at 28.5 h, 10 µM",
    "EXPERIMENTAL_RESULT": 85.9
  },
  {
    "COMPOUND": "O=C(Cc1c[nH]c2ccccc12)Nc1cncc(OC2CCNCC2)n1 [CBK028441T]",
    "MEASUREMENT_NAME": "viability at 28.5 h, 10 µM",
    "EXPERIMENTAL_RESULT": 91
  },
  {
    "COMPOUND": "CCn1c(C)nnc1CN(CC1CCCO1)C1CCCC1 (stereo not shown) [CBK304181]",
    "MEASUREMENT_NAME": "viability at 28.5 h, 10 µM",
    "EXPERIMENTAL_RESULT": 96.4
  },
  {
    "COMPOUND": "OC1(c2ccccn2)CCN(CCc2ccccc2)CC1 [CBK282904]",
    "MEASUREMENT_NAME": "viability at 28.5 h, 10 µM",
    "EXPERIMENTAL_RESULT": 87.2
  },
  {
    "COMPOUND": "CCOC(=O)C1CCCCN1Cc1ccc(O)c(OC)c1 (stereo not shown) [CBK261541]",
    "MEASUREMENT_NAME": "viability at 28.5 h, 10 µM",
    "EXPERIMENTAL_RESULT": 96.9
  },
  {
    "COMPOUND": "COC(=O)c1ccc(CO)nc1 [CBK261376C]",
    "MEASUREMENT_NAME": "viability at 28.5 h, 10 µM",
    "EXPERIMENTAL_RESULT": 104
  },
  {
    "COMPOUND": "C=CCn1c(-c2sc(NC(=O)c3ccc(C)c(C)c3)nc2C)n[nH]c1=S [CBK295294]",
    "MEASUREMENT_NAME": "viability at 28.5 h, 10 µM",
    "EXPERIMENTAL_RESULT": 88.7
  },
  {
    "COMPOUND": "COc1ccc([C@@]23CC[C@@H](NC(=O)c4cc(F)c(Cl)cc4Cl)C[C@@H]2N(C)CC3)cc1OC [CBK074264T]",
    "MEASUREMENT_NAME": "viability at 28.5 h, 10 µM",
    "EXPERIMENTAL_RESULT": 97.4
  },
  {
    "COMPOUND": "Cc1nn(-c2ccc(F)cc2)c2[nH]c(=O)c(CNC(C)(C)C)cc12 [CBK283120]",
    "MEASUREMENT_NAME": "viability at 28.5 h, 10 µM",
    "EXPERIMENTAL_RESULT": 102
  },
  {
    "COMPOUND": "COC(=O)[C@@H](C)NC(=O)[C@@H]1CN(C(=O)c2cccc(F)c2)CCN1S(C)(=O)=O [CBK289625]",
    "MEASUREMENT_NAME": "viability at 28.5 h, 10 µM",
    "EXPERIMENTAL_RESULT": 96.8
  },
  {
    "COMPOUND": "O=C(c1ccc(-c2nccnc2NCc2cccs2)cc1)N1CCOCC1 [CBK037059]",
    "MEASUREMENT_NAME": "viability at 28.5 h, 10 µM",
    "EXPERIMENTAL_RESULT": 98.8
  },
  {
    "COMPOUND": "CCNC(=S)N(CCc1ccccc1)C1CC(=O)N(c2ccc(F)cc2)C1=O (stereo not shown) [CBK262941]",
    "MEASUREMENT_NAME": "viability at 28.5 h, 10 µM",
    "EXPERIMENTAL_RESULT": 87.6
  }
]
